The measured values listed here are drawn from the nanobody polyreactivity screen of Harvey et al. (2022).

Assay: yeast display, Sf9 membrane polyspecificity reagent, FACS + sequencing; frameworks hold sequencing errors
MEASURED_ENDPOINT: polyreactivity (PSR sort gate)

>  <SEQUENCE_CONTENT>
QVQLVESGGGLVQAGGSLRLSCAASRSTITYNAMGWYRQAPGKERELVAAISFSGGRTYYADSVKGRFTISRDNAKNIVYLHMNRLKPEDTAVYYCAKRYGASFYYWGQGTQVTVSS

>  <MEASURED_VALUE>
high polyreactivity

$$$$
>  <SEQUENCE_CONTENT>
QVQLVESGGGLVQAGGSLRLSCAASGRTFPWYTMGWYRQAPGKERELVAAITRSSGSAYYADSVKGRFTISRDTAKNPVYLQMNSLKQEDTAVYYCAARYWVAGFRGRPYDYWGQGTQVTVSS

>  <MEASURED_VALUE>
high polyreactivity

$$$$
>  <SEQUENCE_CONTENT>
QVQLVESGGGLVQAGGSLRLICAASGSTLDKYAMGWDRPAPGKERELVAAISSSGGSTYYADSVKGRFTISRDNAKNTVYLQMNSLKPEDTAVYYCAARFFRGRYLDDYWGQGTQVTVSS

>  <MEASURED_VALUE>
high polyreactivity

$$$$
